target: N-terminal His6-tagged recombinant human KDR, residues 790-end (Homo sapiens); construct: recombinant human KDR, residues 790-end; His6 (N); purchased Upstate USA Inc, 706 Forest Street, Charlottesville, Va; assay: KDR kinase inhibition assay (33P-ATP filter assay); format: biochemical; conditions: group with IC50 greater than 100 nM
Assay metric: IC50

Answered cases to consult:
Cc1cc(Nc2cc(N(C)CCN(C)C)nc(-c3ccc4ccccc4c3)n2)n[nH]1 [Example 142]
≤ 1000 nM
Cc1cc(Nc2cc(N(C)CCN(C)C)nc(-c3cccc4c3OCCO4)n2)n[nH]1 [Example 143]
≤ 1000 nM

In: Give recorded IC50. COCCN(C)c1cc(Nc2cc(C)[nH]n2)nc(-c2ccc3c(c2)OCO3)n1 [Example 153]
Out: ≤ 1000 nM

In: Give recorded IC50. COCCN(C)c1cc(Nc2cc(C)[nH]n2)nc(-c2cccc(Cl)c2)n1 [Compound 62]
Out: ≤ 1000 nM

In: Give recorded IC50. COCCN(C)c1cc(Nc2cc(C)[nH]n2)nc(-c2cccc3ccccc23)n1 [Example 148]
Out: ≤ 1000 nM

In: Give recorded IC50. Cc1cc(Nc2cc(N(C)CCN(C)C)nc(-c3cccc4ccccc34)n2)n[nH]1 [Example 141]
Out: ≤ 1000 nM

In: Give recorded IC50. Cc1cc(Nc2cc(NC3CCOCC3)nc(-c3ccc4c(c3)OCCO4)n2)n[nH]1 [Example 130]
Out: ≤ 1000 nM

In: Give recorded IC50. COCCN(C)c1cc(Nc2cc(C)[nH]n2)nc(-c2cccc(N(C)C)c2)n1 [Compound 119]
Out: ≤ 1000 nM

* * *

target: N-terminal His6-tagged recombinant human KDR, residues 790-end (Homo sapiens, UniProt P35968); construct: recombinant human KDR, residues 790-end; His6 (N); purchased Upstate USA Inc, 706 Forest Street, Charlottesville, Va; experiment: KDR kinase inhibition assay (33P-ATP filter assay); format: biochemical; conditions: 40 minutes at room temperature
Sequence (P35968 790-1356 limits assumed): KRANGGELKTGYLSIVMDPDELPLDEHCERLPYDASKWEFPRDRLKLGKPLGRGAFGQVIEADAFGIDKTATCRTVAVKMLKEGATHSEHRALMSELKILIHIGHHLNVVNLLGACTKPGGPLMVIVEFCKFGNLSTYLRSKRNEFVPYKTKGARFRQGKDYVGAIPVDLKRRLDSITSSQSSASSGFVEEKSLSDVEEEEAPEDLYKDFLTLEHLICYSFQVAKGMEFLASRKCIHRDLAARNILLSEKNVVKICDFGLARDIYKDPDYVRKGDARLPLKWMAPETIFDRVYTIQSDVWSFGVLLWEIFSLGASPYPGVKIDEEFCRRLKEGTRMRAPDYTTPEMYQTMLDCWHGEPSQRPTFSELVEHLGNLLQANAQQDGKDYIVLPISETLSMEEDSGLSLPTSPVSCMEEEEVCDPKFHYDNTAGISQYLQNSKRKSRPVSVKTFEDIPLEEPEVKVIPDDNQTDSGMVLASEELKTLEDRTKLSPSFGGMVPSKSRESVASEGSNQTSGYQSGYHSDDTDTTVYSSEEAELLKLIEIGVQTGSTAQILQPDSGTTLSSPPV
pIC50: −log10 of the molar value.
Assay metric: pIC50

Cc1cc(Nc2cc(N(C)CCN(C)C)nc(-c3cccc(Cl)c3)n2)n[nH]1
≥ 7.00
Cc1cc(Nc2cc(N3CCN(C)CC3)nc(-c3cccc4ccoc34)n2)n[nH]1
≥ 7.00
CC(=O)N1CCN(c2cc(Nc3cc(C)[nH]n3)nc(-c3cc4ccccc4n3C)n2)CC1
≥ 7.00
Cc1cc(Nc2cc(N3CCN(C)CC3)nc(-c3cc4cc(NS(=O)(=O)C5CC5)ccc4o3)n2)n[nH]1
≥ 7.00
Cc1cc(Nc2cc(N3CCN(C)CC3)nc(-c3ccc(F)cc3F)n2)n[nH]1
≥ 7.00

// next item, pIC50 requested
In: Give recorded pIC50. Cc1cc(Nc2cc(NC3CCOCC3)nc(-c3ccccc3)n2)n[nH]1
Out: ≥ 7.00

* * *

target: N-terminal His-tagged human Src (Homo sapiens); construct: His (N); purchased Upstate USA Inc, 706 Forest Street, Charlottesville, Va; assay: Src kinase inhibition assay (33P-ATP filter assay); type: biochemical; settings: 40 minutes at room temperature
Sequence (P12931 whole entry): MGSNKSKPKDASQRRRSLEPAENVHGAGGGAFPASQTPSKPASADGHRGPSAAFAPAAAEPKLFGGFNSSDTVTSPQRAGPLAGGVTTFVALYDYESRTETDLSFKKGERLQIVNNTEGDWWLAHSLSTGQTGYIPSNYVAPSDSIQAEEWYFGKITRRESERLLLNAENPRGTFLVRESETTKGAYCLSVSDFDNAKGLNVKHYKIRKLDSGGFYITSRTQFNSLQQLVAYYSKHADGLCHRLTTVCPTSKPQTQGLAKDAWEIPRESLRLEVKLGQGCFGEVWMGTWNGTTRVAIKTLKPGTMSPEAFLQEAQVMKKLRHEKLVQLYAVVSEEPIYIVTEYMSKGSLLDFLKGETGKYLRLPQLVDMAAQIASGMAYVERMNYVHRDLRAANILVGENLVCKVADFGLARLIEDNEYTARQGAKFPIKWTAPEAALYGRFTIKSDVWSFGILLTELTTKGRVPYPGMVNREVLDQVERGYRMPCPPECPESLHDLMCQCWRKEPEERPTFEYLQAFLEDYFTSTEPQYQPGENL
Assay metric: IC50

Answered cases to consult:
Cc1cc(Nc2cc(N3CCN(C)CC3)nc(-c3ccccc3Cl)n2)n[nH]1 [Compound 37]
≤ 100 nM
Cc1ccc(F)c(-c2nc(Nc3cc(C)[nH]n3)cc(N3CCN(C)CC3)n2)c1 [Example 193]
≤ 100 nM
Cc1cc(Nc2cc(NC3CCOCC3)nc(-c3cc4ccccc4o3)n2)n[nH]1 [Compound 15]
≤ 100 nM
Cc1cc(Nc2cc(NC3CCOCC3)nc(-c3ccc4c(c3)OCO4)n2)n[nH]1 [Example 132]
≤ 100 nM
Cc1cc(Nc2cc(N(C)CCN(C)C)nc(-c3cc4ccccc4n3C)n2)n[nH]1 [Compound 4]
≤ 100 nM
COc1cccc(-c2nc(Nc3cc(C)[nH]n3)cc(NC3CCOCC3)n2)c1 [Compound 29]
≤ 100 nM
Cc1cc(Nc2cc(N3CCN(C)CC3)nc(-c3cccc(F)c3F)n2)n[nH]1 [Example 200]
≤ 100 nM
COc1ccc(F)c(-c2nc(Nc3cc(C)[nH]n3)cc(N3CCN(C)CC3)n2)c1 [Example 197]
≤ 100 nM
Cc1cc(Nc2cc(N(C)CCN(C)C)nc(-c3cccc(C(F)(F)F)c3)n2)n[nH]1 [Compound 113]
≤ 100 nM
Cc1cc(Nc2cc(N3CCN(C)CC3)nc(-c3cccc4ccoc34)n2)n[nH]1 [Example 203]
≤ 100 nM

// next item, IC50 requested
In: Give recorded IC50. Cc1cc(Nc2cc(N3CCN(C)CC3)nc(-c3ccc4c(c3)OCO4)n2)n[nH]1 [Example 139]
Out: ≤ 100 nM

* * *

molecular target: N-terminal GST-tagged recombinant human Flt3, residues 564-end (Homo sapiens, UniProt P36888); construct: recombinant human Flt3, residues 564-end; GST (N); purchased Upstate USA Inc, 706 Forest Street, Charlottesville, Va; experiment: Flt3 kinase inhibition assay (33P-ATP filter assay); format: biochemical; conditions: 40 minutes at room temperature
Sequence (P36888 564-993 limits assumed): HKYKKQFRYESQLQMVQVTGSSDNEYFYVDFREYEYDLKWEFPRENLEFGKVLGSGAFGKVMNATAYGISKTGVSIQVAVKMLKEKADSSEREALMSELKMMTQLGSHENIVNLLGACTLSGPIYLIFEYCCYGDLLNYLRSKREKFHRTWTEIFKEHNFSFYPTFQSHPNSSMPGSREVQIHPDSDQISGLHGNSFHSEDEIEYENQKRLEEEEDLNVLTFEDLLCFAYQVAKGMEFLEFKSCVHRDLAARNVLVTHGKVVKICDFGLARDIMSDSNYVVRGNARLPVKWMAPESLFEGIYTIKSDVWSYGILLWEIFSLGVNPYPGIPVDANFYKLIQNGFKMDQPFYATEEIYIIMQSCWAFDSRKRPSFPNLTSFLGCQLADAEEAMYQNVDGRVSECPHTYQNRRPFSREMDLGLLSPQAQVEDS
Assay metric: IC50

Cc1cc(Nc2cc(NC3CCOCC3)nc(-c3ccc(-c4ccccc4)cc3)n2)n[nH]1
≤ 100 nM

In: Give recorded IC50. Cc1cc(Nc2cc(NC3CCOCC3)nc(-c3ccc(F)cc3)n2)n[nH]1
Out: ≤ 100 nM

In: Give recorded IC50. Cc1cc(C)cc(-c2nc(Nc3cc(C)[nH]n3)cc(N3CCN(C)CC3)n2)c1
Out: ≤ 100 nM

In: Give recorded IC50. Cc1cc(Nc2cc(N(C)CCN(C)C)nc(-c3ccc4ccccc4c3)n2)n[nH]1
Out: ≤ 100 nM

In: Give recorded IC50. COCCN(C)c1cc(Nc2cc(C)[nH]n2)nc(-c2ccc(C(C)(C)C)cc2)n1
Out: ≤ 100 nM

In: Give recorded IC50. COCCN(C)c1cc(Nc2cc(C)[nH]n2)nc(-c2cccc(Cl)c2)n1
Out: ≤ 100 nM

In: Give recorded IC50. COc1cccc(-c2nc(Nc3cc(C)[nH]n3)cc(N3CCN(C)CC3)n2)c1
Out: ≤ 100 nM

In: Give recorded IC50. COc1ccc(-c2nc(Nc3cc(C)[nH]n3)cc(N(C)CCN(C)C)n2)cc1
Out: ≤ 100 nM

In: Give recorded IC50. COCCN(C)c1cc(Nc2cc(C)[nH]n2)nc(-c2ccccc2)n1
Out: ≤ 100 nM

In: Give recorded IC50. COCCNc1cc(Nc2cc(C)[nH]n2)nc(-c2ccccc2)n1
Out: ≤ 100 nM

In: Give recorded IC50. Cc1ccc(C)c(-c2nc(Nc3cc(C)[nH]n3)cc(NC3CCOCC3)n2)c1
Out: ≤ 100 nM

In: Give recorded IC50. Cc1cc(Nc2cc(N3CCN(C)CC3)nc(-c3ccc(N(C)C)cc3)n2)n[nH]1
Out: ≤ 100 nM

In: Give recorded IC50. Cc1cc(Nc2cc(N3CCN(C)CC3)nc(-c3ccco3)n2)n[nH]1
Out: ≤ 100 nM

In: Give recorded IC50. COCCN(C)c1cc(Nc2cc(C)[nH]n2)nc(-c2ccccc2C(F)(F)F)n1
Out: ≤ 100 nM

In: Give recorded IC50. Cc1cc(Nc2cc(NCCN3CCOCC3)nc(-c3ccccc3)n2)n[nH]1
Out: ≤ 100 nM

In: Give recorded IC50. COc1cc(OC)cc(-c2nc(Nc3cc(C)[nH]n3)cc(N3CCN(C)CC3)n2)c1
Out: ≤ 100 nM

In: Give recorded IC50. Cc1cc(Nc2cc(NC3CCOCC3)nc(-c3cccc(N(C)C)c3)n2)n[nH]1
Out: ≤ 100 nM

* * *

Biological target: recombinant Aurora A (Homo sapiens)
Construct: purchased Upstate, Lake Placid, N.Y
Sequence (O14965 whole entry): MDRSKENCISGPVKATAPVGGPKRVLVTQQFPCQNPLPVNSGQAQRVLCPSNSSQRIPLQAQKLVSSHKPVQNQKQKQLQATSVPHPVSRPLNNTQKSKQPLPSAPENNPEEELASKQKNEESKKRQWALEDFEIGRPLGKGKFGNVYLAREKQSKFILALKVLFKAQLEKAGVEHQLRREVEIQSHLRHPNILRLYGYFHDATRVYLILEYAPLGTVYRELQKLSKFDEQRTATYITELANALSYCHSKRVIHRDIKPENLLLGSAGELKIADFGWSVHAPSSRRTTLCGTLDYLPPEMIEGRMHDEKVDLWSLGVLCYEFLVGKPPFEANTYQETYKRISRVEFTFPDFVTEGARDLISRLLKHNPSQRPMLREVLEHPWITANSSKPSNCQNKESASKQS
Experiment: Aurora A (Aurora 2) inhibition assay, Z'-Lyte kinase assay
Type: biochemical
Conditions: ATP 10 μM, 1 h
Method: Compounds were tested for their potency against recombinant Aurora A (Upstate, Lake Placid, N.Y.) using the PanVera Z′-Lyte kinase assay kit—Ser/Thr 1 peptide (Invitrogen, Carlsbad, Calif.). […] Coumarin (Ex. 400 nm, Em. 465 nm) and fluorescein (Ex. 400 nm, Em. 565 nm) fluorescence values were measured on a SpectraFluor Plus plate reader (Tecan, Durham, N.C.). The emission ratio (coumarin/fluorescein) was determined and used to calculate the percent phosphorylation for each well. […]
pIC50: −log10 of the molar value.
Assay metric: pIC50

Answered cases to consult:
Cc1cc(Nc2cc(N3CCN(C)CC3)nc(-c3cccc(OCc4ccccc4)c3)n2)n[nH]1 [Example 188]
≥ 7.00
Cc1cc(Nc2cc(NC3CCOCC3)nc(-c3cc(F)ccc3F)n2)n[nH]1 [Example 185]
≥ 7.00
Cc1cc(Nc2cc(N3CCN(C)CC3)nc(-c3cccc(C#N)c3)n2)n[nH]1 [Example 163]
≥ 7.00

In: Give recorded pIC50. Cc1cc(Nc2cc(N3CCN(C)CC3)nc(-c3cccc(OC(F)(F)F)c3)n2)n[nH]1 [Example 192]
Out: ≥ 7.00

In: Give recorded pIC50. Cc1cccc(-c2nc(Nc3cc(C)[nH]n3)cc(N3CCN(C)CC3)n2)c1 [Compound 39]
Out: ≥ 7.00

In: Give recorded pIC50. Cc1cc(Nc2cc(N3CCN(C)CC3)nc(-c3ccc(N(C)C)cc3)n2)n[nH]1 [Compound 85]
Out: ≥ 7.00

In: Give recorded pIC50. Cc1cc(Nc2cc(N3CCN(C)CC3)nc(-c3cccc4ccccc34)n2)n[nH]1 [Example 134]
Out: ≥ 7.00

In: Give recorded pIC50. Cc1cc(Nc2cc(N3CCN(C)CC3)nc(-c3cccc(F)c3)n2)n[nH]1 [Compound 33]
Out: ≥ 7.00
